test: inhibitors of TWEAK-Fn14 signaling, primary screen, luciferase reporter cells, uHTS (AID 1159606); settings: TWEAK-stimulated Fn14 reporter cells, luciferase luminescence, 8 h; at 10 µM
Screen size: about 360,000 compounds; about 7,300 (2%) were called active. Cut-off read from the data, not from the text of the source: active = inhibition above about 50%; inactive = the rest. This excerpt belongs to a sample that is enriched for actives.
Classes used: active, inactive

COMPOUND_STRING: Cc1ccc(NC(=O)N2CCC(c3nc4c(nnn4Cc4c(F)cccc4Cl)c(=O)[nH]3)CC2)cc1
GROUP: inactive
//
COMPOUND_STRING: Cc1ccc(Cn2nnc3c(=O)[nH]c(C4CCN(S(=O)(=O)/C=C/c5ccccc5)CC4)nc32)cc1
GROUP: active
//
COMPOUND_STRING: Cc1ccccc1NC(=S)NC(=O)Cc1ccc(Cl)cc1
GROUP: inactive

---

experiment: inhibitors of TWEAK-Fn14 signaling, primary screen, luciferase reporter cells, uHTS (AID 1159606); conditions: TWEAK-stimulated Fn14 reporter cells, luciferase luminescence, 8 h; at 10 µM; hits give high values
Hit rate of the full screen: of about 360,000 compounds, about 7,300 (2%) were called active. Shown is part of a subset that was picked to be rich in actives.
A collection of compounds and their measured inhibition

COMPOUND_STRING: CCOc1c(Nc2cccc(Cl)c2)c(=O)c1=O
inhibition (%): 6.24
//
COMPOUND_STRING: CCOC(=O)C(=Cc1ccccc1)C(=O)c1ccccc1
inhibition (%): 98.4
//
COMPOUND_STRING: COc1cccc(-c2ccc(SCC(=O)N3CCN(c4ccccc4)CC3)nn2)c1
inhibition (%): -23.8
//
COMPOUND_STRING: Cc1cc(C)n2c(Nc3c(C)cccc3C)c(CCc3ccccc3)nc2n1
inhibition (%): -5.1

---

assay: inhibitors of TWEAK-Fn14 signaling, primary screen, luciferase reporter cells, uHTS (AID 1159606); settings: TWEAK-stimulated Fn14 reporter cells, luciferase luminescence, 8 h; at 10 µM; hits give high values
Hit rate of the full screen: of about 360,000 compounds, about 7,300 (2%) were called active. Only a selection was taken, and actives are over-represented in it overall.
# inhibition values compiled below

COMPOUND: CCC(NC(=O)c1ccccc1NC(=O)c1ccccc1)C(=O)NNC(=O)CSc1nc2ccccc2o1 (stereo unspecified)
inhibition / %: -0.91
--
COMPOUND: CC1(C(=O)NCc2cccc3ccccc23)CCN1Cc1ccc(-c2ccccc2)o1 (stereo unspecified)
inhibition / %: 7.77
--
COMPOUND: CC(=O)c1ccc(NC(=S)N(Cc2ccccc2)C(C)C2CC2)cc1 (stereo unspecified)
inhibition / %: 11.1
--
COMPOUND: CCCCc1ccc(NS(=O)(=O)c2cccc(C(=O)N3CCCN(C)CC3)c2)cc1
inhibition / %: 13.3
--
COMPOUND: c1ccc(-c2noc(-c3cccs3)n2)nc1
inhibition / %: 76.2
--
COMPOUND: CCN(CC)CCN(C)C(c1ccnc2ccccc12)c1nnnn1-c1ccc2c(c1)OCCO2 (stereo unspecified)
inhibition / %: 29.9
--
COMPOUND: O=[N+]([O-])c1ccc(CN2CC(N3CCC(c4ccccc4)CC3)CS2(=O)=O)cc1 (stereo unspecified)
inhibition / %: -12.9
--
COMPOUND: O=C(Oc1ccc(-c2nc(-c3ccccn3)no2)cc1)c1ccccc1
inhibition / %: 92.9
--
COMPOUND: C[C@@H]1CN([C@@H](C)CO)C(=O)c2cc(NS(C)(=O)=O)ccc2O[C@@H](C)CCCCO[C@H]1CN(C)C(=O)Nc1ccc2c(c1)OCO2
inhibition / %: -5.22
--
COMPOUND: COc1cccc2c(C)c(C(=O)O)[nH]c12
inhibition / %: 74.4
--
COMPOUND: Clc1ccc(-n2nnnc2-c2cnc(-c3ccccn3)nc2-c2cccs2)cc1
inhibition / %: 10
